- Test system: UO-31 renal
- experimentalProtocol: NCI-60 one-dose screen, 48 h (100 = growth as untreated, 0 = no growth, -100 = all killed)
- conditionLabel: 10 µM unless noted
- Procedure: Growth inhibition of the UO-31 human tumor cell line is measured as a screen for anti-cancer activity. Cells are grown in 96 well plates and exposed to the test compound for 48 hours. Compounds are tested at a single concentration, which is 10^-5 M for most compounds. The reported endpoint is percent growth (GI% or GIPRCNT), where numbers from 0 - 100% represent growth inhibition, and numbers from -100% - 0 represent cell death. For example, a value of 40 represents 60% growth inhibition. […]
Compounds without any hit were thinned out: in the full panel of roughly 83,000, 20% have a hit.
Respond with Criterion met for growth values of 90% and above, Criterion not met for values below.

Examples with answers:
CCC(=O)C(CC(C)[N+](C)(C)C)(c1ccccc1)c1ccccc1 (stereo unspecified) :: Criterion met
Cc1cc[c-]cc1.Fc1c[c-]c(-c2ccccn2)c(F)c1.N#CCC[PH+](CCC#N)c1ccccc1.[Pt+2] :: Criterion not met
O=c1[nH]c(=O)[nH]c(=O)[nH]1 :: Criterion met
COC12CC3C4=CCOC5CC(=O)N6c7ccccc7C1(CCN2C4)C6C53 (stereo unspecified) :: Criterion met
CNC(=O)CCl :: Criterion met
O=NN1CCCCC1 :: Criterion met
Cc1ccc(P(=O)(O)O)cc1 :: Criterion met
COCC1OC2OC3C(COC)OC(OC4C(COC)OC(OC5C(COC)OC(OC6C(COC)OC(OC7C(COC)OC(OC8C(COC)OC(OC1C(O)C2O)C(O)C8O)C(O)C7O)C(O)C6O)C(O)C5O)C(O)C4O)C(O)C3O (stereo unspecified) (tested in a mixture with another compound) :: Criterion met
C=CC1CN2CCC1CC2C(O)c1ccnc2ccccc12 (stereo unspecified) :: Criterion not met
CC[C@H](CC[C@@H](C)[C@H]1CC[C@H]2[C@@H]3CC[C@H]4C[C@]5(CC[C@]4(C)[C@H]3CC[C@]12C)OO[C@](C)(C(F)(F)F)O5)C(C)C :: Criterion not met

Q) hey, is growth for this one >= 90%? O=C(CBr)OCCOC(=O)CBr
A) Criterion not met

Q) hey, is growth for this one >= 90%? C[C@]12CCc3sc(Nc4ccc(OC(F)(F)F)cc4)nc3C1=CC[C@@H]1[C@@H]2CC[C@]2(C)C(=O)CC[C@@H]12
A) Criterion not met

Q) hey, is growth for this one >= 90%? COC12CC3(C)C(C4=CC(=O)OC4)CCC3(O)C3CCC4=CC(=O)CCC4(CO1)C32 (stereo unspecified)
A) Criterion not met

Q) hey, is growth for this one >= 90%? C[C@]12CCc3sc(Nc4ccc(F)cc4F)nc3C1=CC[C@@H]1[C@@H]2CC[C@]2(C)C(=O)CC[C@@H]12
A) Criterion not met

Q) hey, is growth for this one >= 90%? CC[PH+](CC)CC.O=COC1OC([S-])C(OC=O)C(OC=O)C1OC=O.[Au+] (stereo unspecified)
A) Criterion not met
